As shown below, each of these binders has a reported Anti-CD28 Fab signal in the presence of CD28 (phage binding ELISA) value.
molecular target: Anti-CD28 Fab (SEQ ID NOs: 696, 697); experiment: phage ELISA as above; wells pre-incubated with CD28 antigen as competitor
Sequence (VH, as listed by the source, chain 1 of 2): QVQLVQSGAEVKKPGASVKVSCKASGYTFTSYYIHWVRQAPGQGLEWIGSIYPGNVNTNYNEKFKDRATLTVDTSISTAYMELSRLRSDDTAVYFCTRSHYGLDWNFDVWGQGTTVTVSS
Sequence (VL, as listed by the source, chain 2 of 2): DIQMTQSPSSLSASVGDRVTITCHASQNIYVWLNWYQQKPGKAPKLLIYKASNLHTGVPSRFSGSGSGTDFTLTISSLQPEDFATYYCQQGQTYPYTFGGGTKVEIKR
Where no end group is shown, it is not given here.
endpoint.name: Anti-CD28 Fab signal in the presence of CD28 (phage binding ELISA)

• YCSGHLPMYMAKCL (peptide, not shown: large carriers, cysteine pairing not given here; also: fused to phage pIII protein, pIII and linker sequence not given here, Tested as clonal phage supernatant) [Phage-1300] = 0.13
• YCDGHVTEYMAKCL (peptide, not shown: large carriers, cysteine pairing not given here; also: fused to phage pIII protein, pIII and linker sequence not given here, Tested as clonal phage supernatant) [Phage-1308] = 0.07
• YCAGHALEYMQKCM (peptide, not shown: large carriers, cysteine pairing not given here; also: fused to phage pIII protein, pIII and linker sequence not given here, Tested as clonal phage supernatant) [Phage-1303] = 0.08
• YCEGHLAVHMSKCL (peptide, not shown: large carriers, cysteine pairing not given here; also: fused to phage pIII protein, pIII and linker sequence not given here, Tested as clonal phage supernatant) [Phage-1301] = 0.06
• YCEGHKKEYMLKCL (peptide, not shown: large carriers, cysteine pairing not given here; also: fused to phage pIII protein, pIII and linker sequence not given here, Tested as clonal phage supernatant) [Phage-1310] = 0.08
• YCQGHSELYMSKCL (peptide, not shown: large carriers, cysteine pairing not given here; also: fused to phage pIII protein, pIII and linker sequence not given here, Tested as clonal phage supernatant) [Phage-1305] = 0.08
• YCDGHIEMYMSKCM (peptide, not shown: large carriers, cysteine pairing not given here; also: fused to phage pIII protein, pIII and linker sequence not given here, Tested as clonal phage supernatant) [Phage-1302] = 0.06
• YCEGHLQEYMGKCL (peptide, not shown: large carriers, cysteine pairing not given here; also: fused to phage pIII protein, pIII and linker sequence not given here, Tested as clonal phage supernatant) [Phage-1307] = 0.25
• YCDGHTPQFRAKCL (peptide, not shown: large carriers, cysteine pairing not given here; also: fused to phage pIII protein, pIII and linker sequence not given here, Tested as clonal phage supernatant) [Phage-1306] = 0.07
• YCEGHIGDYIAKCL (peptide, not shown: large carriers, cysteine pairing not given here; also: fused to phage pIII protein, pIII and linker sequence not given here, Tested as clonal phage supernatant) [Phage-1304] = 0.36
• YCEGHVELYRQKCL (peptide, not shown: large carriers, cysteine pairing not given here; also: fused to phage pIII protein, pIII and linker sequence not given here, Tested as clonal phage supernatant) [Phage-1311] = 0.06
• YCDGHIMPYLDKCL (peptide, not shown: large carriers, cysteine pairing not given here; also: fused to phage pIII protein, pIII and linker sequence not given here, Tested as clonal phage supernatant) [Phage-1309] = 0.05
• YCDGHLETYMQKCL (peptide, not shown: large carriers, cysteine pairing not given here; also: fused to phage pIII protein, pIII and linker sequence not given here, Tested as clonal phage supernatant) [Phage-1312] = 0.08
